# procedure details: Absorption in rats after intragastric administration of different crystal forms (plasma PK, LC/MS/MS)
# Format: in vivo
# measurement conditions: SD rats, 8 mg/kg
# Description: SD rats were intragastrically administered samples of different crystal forms. Blood samples (0.4 mL) were respectively collected from the venous plexus of the rat's fundus oculi at various time points: before administration and at 5, 15, 30, 60, 90, 120, 240, 360, 480, 600, and 1440 minutes after administration. […] The plasma drug concentration was determined using LC/MS/MS, and the corresponding pharmacokinetic parameters were calculated, as shown in Table 17.
quantity: t1/2 (h)

>>> experimental_value("CCOc1cc2ncnc(Nc3ccc(Oc4ccn5ncnc5c4)c(C)c3)c2cc1NC(=O)/C(F)=C/[C@H]1CCCN1C [Crystal form M]")
2.55
>>> experimental_value("CCOc1cc2ncnc(Nc3ccc(Oc4ccn5ncnc5c4)c(C)c3)c2cc1NC(=O)/C(F)=C/[C@H]1CCCN1C [Crystal form B]")
3.34
>>> experimental_value("CCOc1cc2ncnc(Nc3ccc(Oc4ccn5ncnc5c4)c(C)c3)c2cc1NC(=O)/C(F)=C/[C@H]1CCCN1C [Crystal form A]")
2.74
>>> experimental_value("CCOc1cc2ncnc(Nc3ccc(Oc4ccn5ncnc5c4)c(C)c3)c2cc1NC(=O)/C(F)=C/[C@H]1CCCN1C [Crystal form C]")
3.04

Source: patent US20250163053A1
